Property: inhibition at 1 µM; scope: individual compounds
# Test Target: human serotonin transporter (Homo sapiens)
# Construct: expressed in transfected cells
# Sequence (P31645 whole entry): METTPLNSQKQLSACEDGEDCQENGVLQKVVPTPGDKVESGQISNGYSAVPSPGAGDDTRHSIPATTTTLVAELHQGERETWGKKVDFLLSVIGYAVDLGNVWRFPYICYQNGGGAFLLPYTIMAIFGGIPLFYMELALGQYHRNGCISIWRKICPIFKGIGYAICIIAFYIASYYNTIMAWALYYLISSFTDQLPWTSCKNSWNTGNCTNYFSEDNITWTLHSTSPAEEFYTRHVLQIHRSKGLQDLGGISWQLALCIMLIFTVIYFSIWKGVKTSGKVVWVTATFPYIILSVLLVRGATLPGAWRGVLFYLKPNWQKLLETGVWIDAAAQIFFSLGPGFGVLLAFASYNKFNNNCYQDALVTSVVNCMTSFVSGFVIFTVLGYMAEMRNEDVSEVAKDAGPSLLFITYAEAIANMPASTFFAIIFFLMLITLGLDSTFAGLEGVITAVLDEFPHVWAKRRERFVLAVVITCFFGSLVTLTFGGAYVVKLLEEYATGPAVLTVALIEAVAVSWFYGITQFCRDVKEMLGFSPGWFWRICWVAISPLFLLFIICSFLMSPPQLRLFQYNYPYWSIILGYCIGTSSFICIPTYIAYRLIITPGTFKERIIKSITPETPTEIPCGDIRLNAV
# Experimental Protocol: Inhibitory action on human serotonin transporter ([3H]-5-hydroxytryptamine uptake in CHO cells)
# Assay type: cell-based
# Setup Conditions: CHO, compound 1 μM; relative to inhibitory activity of 10 μM Paroxetine as 100%; read-out: inhibitory rate (%)
Where a name gives a salt, the structure may show the parent alone.
Enter your answer as a number in %; do not include the unit.

Please review the following examples before continuing.
Compound	inhibition at 1 µM, %
O=c1[nH]nc(-c2cccn(C[C@@H]3CNCCO[C@H]3c3ccc(Cl)c(F)c3)c2=O)[nH]1 [Example 379, monohydrochloride]	95
CS(=O)(=O)NCC1(c2ccc(Cl)c(Cl)c2)CNCCCO1 (racemic) [Example 24, monohydrochloride]	87
CS(=O)(=O)CC(=O)NC[C@H]1CNCCO[C@@H]1c1ccc(Cl)c(Cl)c1 [Example 115, monohydrochloride]	99

Task item: Looking for the measured inhibition at 1 µM of Cc1ccc(C2OCCNCC2CO)cc1Cl (stereo not shown) [Example 405] , can you help?
Reply: 71

All figures here come from patent US20130267494A1.
